# measured target: Sialic acid-binding Ig-like lectin 9 (Homo sapiens) (UniProt Q9Y336)
# Sequence (Q9Y336 whole entry): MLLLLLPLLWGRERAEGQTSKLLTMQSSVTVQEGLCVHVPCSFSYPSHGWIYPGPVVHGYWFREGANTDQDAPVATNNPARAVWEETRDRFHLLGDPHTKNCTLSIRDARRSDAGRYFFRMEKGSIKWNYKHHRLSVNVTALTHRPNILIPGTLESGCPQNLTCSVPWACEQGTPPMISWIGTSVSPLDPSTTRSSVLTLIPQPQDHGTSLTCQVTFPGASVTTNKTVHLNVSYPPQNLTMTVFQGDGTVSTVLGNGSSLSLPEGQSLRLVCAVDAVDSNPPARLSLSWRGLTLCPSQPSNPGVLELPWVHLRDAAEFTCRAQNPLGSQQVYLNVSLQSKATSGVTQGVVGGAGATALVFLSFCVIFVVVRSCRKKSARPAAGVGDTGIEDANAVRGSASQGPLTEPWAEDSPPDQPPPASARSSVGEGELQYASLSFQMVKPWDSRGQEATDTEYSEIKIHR
# assay explanation: Hs-Siglec9 ALPHAscreen SOP 20170721
# Design: scale not given: direction of the effect not stated beside the values
# protocol conditions: 10 µM
Field: Percent Effect. Provide a value for each of the molecules that follow.
Answers are plain numbers, in %.

See these solved cases before continuing.
1) Cc1nccn1Cc1nnc(C2CCCN(Cc3cccnc3)C2)n1C (centres undefined)	4.69
2) Cc1nc(C)n(CC2CCCN2CC(=O)NCCc2ccccc2)n1 (centres undefined)	4.24
3) Cc1cnn(CC2CCCN2Cc2nnc(Cc3ccccc3)o2)c1 (centres undefined)	-3.85
4) CC(C)(CNC(=O)NCCOc1cccc(F)c1)C(N)=O	8.76

Lab note: each molecule below needs its Percent Effect filled in.
1. CCc1csc(C2CCCN(C(=O)C3=NN(CC)C(=O)CC3)C2)n1 (centres undefined)
2. Cn1cc(-c2nnn3c2COC(CNCc2nccs2)C3)cn1 (centres undefined)
3. COc1cc(CNCCc2cnn(C)c2)cc2c1OCCO2
4. Cc1oc(C)c(C(=O)NCc2ccccc2S(=O)(=O)N(C)C)c1C
5. CN(Cc1nccn1CC(F)(F)F)C(=O)c1ccc(F)cc1F
6. COc1cccc(CN2CCC3(CCN(C(=O)[C@H]4CCCO4)CC3)C2)c1
7. Cc1csc2c(=O)n3c(nc12)CCN(C(=O)c1cccnc1)CC3

OUTPUT:
5.23
1
15.7
1.67
6.23
-5.6
-1.07

Respectfully, I request Percent Effect for each entry included below.
1. COc1c(CNCc2cccc(CN(C)C)c2)c(C)nn1C
2. Cc1cc(C)c(OCC(=O)NS(=O)(=O)c2cccnc2)c(C)c1
3. COc1ccc(CN2CC[C@H]3[C@H]2CCN3C(=O)c2cnn(C)c2)cc1
4. CCOC1CCN(C(=O)c2cnn(-c3ccccc3Cl)c2)CC1
5. COCCOc1ncccc1C(=O)Nc1ccc(-n2cncn2)c(F)c1
6. CC1CN(CC2CCCCC2)CCN1c1ccc2nncn2n1 (centres undefined)
7. CCNC(=O)N1CCN(Cc2nc3ccccc3[nH]2)[C@@H]2CS(=O)(=O)C[C@@H]21

OUTPUT:
[6.33, 1.96, -12.3, 9.51, 9.57, -7.37, -3.56]

Look up Percent Effect for the entries below, preserving their order.
1. Cc1ccc(S(=O)(=O)N2C[C@H]3C[C@H](NC(=O)c4ccnn4C)[C@H]3C2)cc1
2. CC(C)c1nc(C(=O)N2CCCC(n3cncn3)C2)c[nH]1 (centres undefined)
3. COCC(c1cccc(C(F)(F)F)c1)N(C)C(=O)c1cc(C)no1 (centres undefined)
4. COCc1cc(O)nc(C2CCCN(Cc3cc(OC)ccc3F)C2)n1 (centres undefined)

OUTPUT:
1: 1.27; 2: 3.06; 3: -2.93; 4: 5.64

Consider the following items and state reported Percent Effect for each.
1. Cc1nc(C)n(CC2CCCN2Cc2nc(C3CC3)no2)n1 (centres undefined)
2. CC(C)CN1CCc2[nH]cnc2C12CCN(C(=O)c1cccnc1)CC2
3. O=C(c1cscn1)N1CCC2(CCN(Cc3nccs3)C2)CC1

OUTPUT:
-2.5
3.2
3.97

Field: Percent Effect. Fill in for each record below.
1. CN1CCOC(CNC(=O)Cc2ccccc2F)C1 (centres undefined)
2. Cc1cc(C(=O)NCCn2nc3ccccn3c2=O)[nH]n1
3. COCCCNC(=O)CN(C)C(=O)c1cc(C)sc1C
4. CCN(Cc1ccc2c(c1)OCO2)C(=O)CCc1c(C)nc(C)[nH]c1=O
5. O=C(NCCCn1cncn1)N1CCCC(N2CCCC2)C1 (centres undefined)
6. Cc1nnc(NCc2ccccc2Cl)c(C#N)c1C
7. Cc1ccc(-c2nnc(CN3CCOC(Cn4cccn4)C3)o2)cc1 (centres undefined)
8. Cc1ccc(CN2CCC3(CC2)OC(C(=O)N(C)C)c2ccccc23)o1 (centres undefined)

OUTPUT:
1: -3.95; 2: -9.12; 3: 1.88; 4: 7.45; 5: -3.21; 6: -2.89; 7: 4.66; 8: -0.475

Could you report Percent Effect for every entry in the following list?
1. Cc1[nH]/c(=N\C(=O)c2csc(NC3CC3)n2)sc1C
2. COc1ncnc2c1CCN(c1cc(C(F)(F)F)ncn1)CC2
3. CC(NC(=O)Nc1cccnc1N1CCCC1)c1nncn1C (centres undefined)
4. Cn1cc(C(=O)NC2CCN(Cc3ccn(C)c(=O)c3)CC2)cn1
5. Cc1cnn(CC2CCCN2C(=O)c2ccc3nnc(C)n3c2)c1 (centres undefined)

OUTPUT:
[-0.99, -3.21, 2.82, -4.2, -9.94]

INPUT: Look up Percent Effect: COc1ccc(CNC2CCCN(Cc3noc(C)n3)C2)cc1F (centres undefined)
OUTPUT: 4.31

---

Exercise: state measured Percent Effect for each of the compounds provided.
# measured target: Protein translocase subunit SecA (Escherichia coli (strain K12)) (UniProt P10408)
# Sequence (P10408 whole entry): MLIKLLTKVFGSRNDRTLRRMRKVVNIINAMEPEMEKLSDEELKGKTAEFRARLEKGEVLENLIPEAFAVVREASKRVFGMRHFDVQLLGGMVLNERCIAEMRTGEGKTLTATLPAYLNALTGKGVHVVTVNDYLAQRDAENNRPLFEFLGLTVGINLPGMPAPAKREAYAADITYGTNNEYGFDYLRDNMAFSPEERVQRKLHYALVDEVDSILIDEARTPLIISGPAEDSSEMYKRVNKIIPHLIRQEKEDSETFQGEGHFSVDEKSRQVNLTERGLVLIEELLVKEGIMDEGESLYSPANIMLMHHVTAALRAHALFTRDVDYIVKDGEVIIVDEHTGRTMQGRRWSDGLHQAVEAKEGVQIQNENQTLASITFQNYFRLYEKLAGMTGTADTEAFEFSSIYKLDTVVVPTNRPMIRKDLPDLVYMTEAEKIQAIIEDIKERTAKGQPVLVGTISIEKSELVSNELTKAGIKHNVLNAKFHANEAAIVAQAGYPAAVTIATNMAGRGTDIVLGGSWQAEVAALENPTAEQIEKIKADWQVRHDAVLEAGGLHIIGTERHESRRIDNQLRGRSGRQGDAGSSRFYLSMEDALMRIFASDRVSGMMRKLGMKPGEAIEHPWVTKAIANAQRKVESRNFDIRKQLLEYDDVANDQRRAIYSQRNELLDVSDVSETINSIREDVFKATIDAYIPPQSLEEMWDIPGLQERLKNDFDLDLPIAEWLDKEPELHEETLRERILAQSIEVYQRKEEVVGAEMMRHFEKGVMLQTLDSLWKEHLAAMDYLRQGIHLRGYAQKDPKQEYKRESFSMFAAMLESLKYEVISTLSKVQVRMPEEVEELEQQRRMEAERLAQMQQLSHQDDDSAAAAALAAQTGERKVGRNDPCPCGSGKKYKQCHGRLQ
# assay explanation: Assay to Identify E. coli SecA ATPase Inhibitors
# Type: functional
# Set-up: scale not given: direction of the effect not stated beside the values
# protocol conditions: 30 µM
Results with a measured potency or affinity are listed apart.
Answers are plain numbers, in %.

1. COc1ccc(CCN2CCCC(Cn3nc(C)nc3C)C2)cc1 (centres undefined)	-1.76
2. Cc1csc(N2CCCN(C(=O)C(C(C)C)n3cncn3)CC2)n1 (centres undefined)	-1.03
3. CCC(=O)N1CCC2(COCc3c(C)nc(N(C)C)nc32)C1 (centres undefined)	-9.59

Respectfully, I request Percent Effect for each entry included below.
1. CCn1nc(-c2ccccc2F)ccc1=O
2. Cc1ccc2oc(C(=O)N3CCCC(n4nc(C)cc4C)C3)cc2n1 (centres undefined)
3. Cc1nn(C)c(N2CCOCC2)c1CNC1CCc2cc(F)ccc21 (centres undefined)
4. Cc1ccc(CNCC2CCc3nnc(C(C)C)n3C2)s1 (centres undefined)

OUTPUT:
[-4.01, -4.01, -1.4, -1.99]

Below are some compounds; for each one, tell me its Percent Effect.
1. COC(=O)c1sccc1NC(=O)C1CCCN1C(=O)c1ccco1 (centres undefined)
2. Cc1noc(C)c1-c1cnc(CC2CCN(C(=O)c3cc[nH]n3)C2)cn1 (centres undefined)

OUTPUT:
[-0.782, -0.461]

---

# measured target: Proteasome subunit beta (Trypanosoma cruzi)
# Sequence (whole entry): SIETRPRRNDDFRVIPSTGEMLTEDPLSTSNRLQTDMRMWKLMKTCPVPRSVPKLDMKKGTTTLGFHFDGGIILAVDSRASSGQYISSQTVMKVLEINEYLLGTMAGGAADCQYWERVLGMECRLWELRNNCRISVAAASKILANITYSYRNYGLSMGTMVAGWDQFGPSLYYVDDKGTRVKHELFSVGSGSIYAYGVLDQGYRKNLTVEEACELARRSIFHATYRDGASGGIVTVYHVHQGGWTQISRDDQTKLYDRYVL
# assay explanation: Trypanosoma cruzi proteasome chymotrypsin-like activity (TcProtChymo) assay. Also: in the data most compounds retested in dose-response had high values.
# Type: functional
# Set-up: scale not given: direction of the effect not stated beside the values
# protocol conditions: 9.37 µM
What Percent Effect was measured for each of the following?
Give bare numbers, in %.

// known answers, use as guide
1) CCOC(C)c1nc(CN2CCC(CNC(C)=O)CC2)cs1 (configuration not stated)	8.97
2) Cc1nc[nH]c1CN1CCN(C(=O)CCC(F)(F)F)[C@H]2CS(=O)(=O)C[C@H]21	15.1
3) CC(C)Cc1nc(OCC(N)=O)c(C#N)c2c1CCC2	19.4
4) c1ccc2cc(OCCN3CCn4c(nnc4C4CC4)C3)ccc2c1	4.33
5) O=C(NC1(c2nnn(CCO)n2)CCCC1)c1ccccc1	1.57
6) Cc1cc(NC(=O)CN2CCCC2c2noc(C(C)C)n2)n(C)n1 (configuration not stated)	4.67
7) Cn1c(C(F)(F)F)nn(CCNC(=O)NCc2ccccc2)c1=O	1.6
8) CC(C)c1nccn1-c1cccc(C2CCCN2S(=O)(=O)N(C)C)n1 (configuration not stated)	14.8
9) CCc1ccc(O)c(C(=O)NC2CCN(S(=O)(=O)CC)CC2)c1	10.2
10) COCCn1ccnc1C1CCCN(C(=O)CSCC2CC2)C1 (configuration not stated)	19.1

Give measured Percent Effect for every item shown.
1. CCOC1COC2(CCN(Cc3ccc4c(c3)OCO4)CC2)C1 (configuration not stated)
2. Cc1cccnc1CN(C)CC1(O)CCCN(CC2CCCCC2)C1=O (configuration not stated)
3. CNc1cc(N2CCCC2CNCc2ccc(Cl)o2)ncn1 (configuration not stated)

OUTPUT:
5.06
9.76
18.9

---

For each record, write down the corresponding Percent Effect.
# Organism: Homo sapiens
# assay explanation: To identify inhibition of the IFN signalling (Jak-Stat) pathway via expression of an eGFP reporter gene under the control of an IFN-stimulated response element (ISRE) containing MxA promoter.
# Format: functional
# Design: scale not given: direction of the effect not stated beside the values
# protocol conditions: 30 µM
Please state the value followed by its unit.

Use these answered entries as a reference point.
1) O=C(COc1ccc2c(c1)CCC2)NS(=O)(=O)c1cncc(Br)c1	7.32%
2) CC(C)N(C)CC(=O)N1CCCC(c2ccc(C(=O)O)cc2)C1 (centres undefined)	-11.9%
3) Cc1ccccc1CN(C)Cc1nc2c(cnn2C)c(=O)[nH]1	7.6%

Moving on to another compound below.
INPUT: Name the reported Percent Effect value associated with the compound CC(=O)N1[C@H](CN(C)C)C[C@@H]2CN(C(=O)c3cccc(F)c3)CC[C@@H]21
OUTPUT: 14.5%
